# measurement.target: UGT8 (Homo sapiens, UniProt Q16880)
# Construct: host or cells: OE19 cells
# Sequence (Q16880 21-541): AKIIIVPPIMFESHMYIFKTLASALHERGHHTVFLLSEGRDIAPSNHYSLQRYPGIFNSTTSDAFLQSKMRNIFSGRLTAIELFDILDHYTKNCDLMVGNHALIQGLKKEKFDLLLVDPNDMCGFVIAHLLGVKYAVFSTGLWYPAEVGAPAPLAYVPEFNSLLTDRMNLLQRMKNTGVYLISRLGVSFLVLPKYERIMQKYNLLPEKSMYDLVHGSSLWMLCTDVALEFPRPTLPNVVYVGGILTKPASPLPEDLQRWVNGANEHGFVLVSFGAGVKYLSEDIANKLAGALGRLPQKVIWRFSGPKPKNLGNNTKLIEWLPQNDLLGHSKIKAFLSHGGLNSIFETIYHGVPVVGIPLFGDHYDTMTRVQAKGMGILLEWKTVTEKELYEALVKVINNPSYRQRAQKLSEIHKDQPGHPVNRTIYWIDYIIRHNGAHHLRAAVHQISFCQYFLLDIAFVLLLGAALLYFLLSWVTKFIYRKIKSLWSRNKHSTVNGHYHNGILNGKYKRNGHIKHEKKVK
# test: In vitro sulfatide (SFT) synthesis inhibition in OE19 cells, LC-MS/MS readout
# Assay type: cell-based
# run.conditions: 72 hr, sulfatide by LC-MS/MS, read-out: Potency range (IC50, In-vitro SFT)
# Method: For medium throughput screening, library compounds were dispensed into CellBIND 384 well plates to a final concentration of 10 μM. OE19 cells (Sigma) were grown in to 70-90% confluency in RPMI 1640+L-glutamine and […]; were trypsinized to achieve suspension and were aliquoted at 2,500 cells/well, total well volume 50 μl. […] SFT was analyzed using an Applied Biosystems API-4000 triple quad mass spectrometer interfaced to a Thermo Scientific Multiplex system (LX-4) equipped with four pumps. […]
pIC50: −log10 of the molar value. Where a name gives a salt, the structure may show the parent alone.
metric.name: pIC50

Some solved entries appear below for comparison.
molecule | assay.value
CC(C)NC(=O)c1csc2c(C(F)(F)F)cc(N3CCC(NC(=O)OC(C)(C)C)C3)nc12 (centres unmarked) [Example 642] | 6.00 to 7.00
CNC(=O)c1csc2c(C(F)(F)F)cc(N3CCC(OCCN4CCC(F)(F)C4)CC3)nc12 [Example 361] | > 7.00
CNC(=O)c1csc2c(C(F)(F)F)cc(N3CCN(CC4CN(C(C)C)CCO4)CC3)nc12 (centres unmarked) [Example 552, trifluoroacetate] | < 6.00
CNC(=O)c1csc2c(C(F)(F)F)cc(OC3CCN(C(=O)OC(C)(C)C)C3)nc12 (centres unmarked) [Example 589] | 6.00 to 7.00
CNC(=O)c1csc2c(C(F)(F)F)cc(O[C@H]3CCN(C(=O)OC[C@@H](C)OC(F)(F)F)C3)nc12 [Example 858] | > 7.00

The following molecules each have a reported value; give each one's pIC50.
1. CNC(=O)c1csc2c(C(F)(F)F)c(Cl)c(N3CCC(OC(=O)NCC4CC4)CC3)nc12 [Example 638]
2. CNC(=O)c1csc2c(C(F)(F)F)cc(OC3CCN(C(=O)NCC4CC4)C3)nc12 (centres unmarked) [Example 590]
3. CNC(=O)c1c(C)sc2c(C(F)(F)F)cc(N3CCC(OC(=O)NCC4CC4)CC3)nc12 [Example 415]

### Response
["> 7.00", "6.00 to 7.00", "> 7.00"]

* * *

# measurement.target: UGT8 (Homo sapiens, UniProt Q16880)
# test: In vitro sulfatide (SFT) synthesis inhibition in OE19 cells, LC-MS/MS readout
# run.conditions: 72 hr, sulfatide by LC-MS/MS, read-out: Potency range (IC50, In-vitro SFT)
metric.name: IC50

molecule | IC50
CNC(=O)c1csc2c(C(F)(F)F)cc(CC3CCN(C(=O)OC(C)(C)C)CC3)nc12 | 100 to 1000 nM
CNC(=O)c1csc2c(C(F)(F)F)cc(N3CCC(OC(=O)NCC4CC4)CC3)nc12 | < 100 nM
CNC(=O)c1csc2c(C(F)(F)F)c(F)c(N3CCC(OC(=O)NC4CC4)CC3)nc12 | < 100 nM
CNC(=O)c1csc2c(C(F)(F)F)cc(O[C@H]3CCN(C(=O)OC(C)(C)C)C3)nc12 | 100 to 1000 nM
CNC(=O)c1csc2c(C(F)(F)F)cc(N3CCN(Cc4nc(C(C)C)cs4)CC3)nc12 | < 100 nM
CNC(=O)c1csc2c(C(F)(F)F)c(F)c(N3CCC(OC(=O)N[C@@H](C)C4CC4)CC3)nc12 | < 100 nM
CNC(=O)c1csc2c(C(F)(F)F)c(C)c(O[C@H]3CCN(C(=O)O[C@@H](C)COC(F)(F)F)C[C@H]3F)nc12 | < 100 nM
CNC(=O)c1csc2c(C(F)(F)F)cc(O[C@@H]3CCN(C(=O)OCCOC(F)(F)F)[C@@H](C)C3)nc12 (racemic) | < 100 nM

The following molecules each have a reported value; give each one's IC50.
1. CNC(=O)c1csc2c(C(F)(F)F)cc(OC3CC4(C3)CN(C(=O)O[C@@H](C)COC(F)(F)F)C4)nc12
2. CNC(=O)c1csc2c(C(F)(F)F)cc(N3CCC(NC(=O)OC(C)C)CC3)nc12
3. CNC(=O)c1csc2c(C(F)(F)F)cc(N3CC4(CN(C(=O)OC5COC5)C4)C3)nc12
4. [2H]C([2H])([2H])NC(=O)c1csc2c(C(F)(F)F)cc(N3CCC(OC(=O)NC4CC4)CC3)nc12
5. CNC(=O)c1csc2c(C(F)(F)F)cc(N3CC(NC(=O)OC(C)(C)C)C3)nc12
6. CNC(=O)c1csc2c(C(F)(F)F)cc(OCC3CN(C(=O)OC(C)(C)C)C3)nc12
7. CNC(=O)c1csc2c(C(F)(F)F)c(C)c(O[C@@H]3CCN(C(=O)O[C@@H](C)C4CC4)[C@H](C)C3)nc12
8. CNC(=O)c1csc2c(C(F)(F)F)cc(N3CCC(NC(=O)OCCC#N)CC3)nc12

### Response
1. < 100 nM
2. < 100 nM
3. < 100 nM
4. < 100 nM
5. < 100 nM
6. 100 to 1000 nM
7. < 100 nM
8. < 100 nM

The following molecules each have a reported value; give each one's IC50.
1. CC(C)NC(=O)CN1CCN(c2cc(C(F)(F)F)c3scc(C(=O)N4CCC4)c3n2)CC1
2. CNC(=O)c1csc2c(C(F)(F)F)cc(O[C@@H]3CCN(C(=O)OC(C)(C)C)[C@H](C)C3)nc12 (racemic) [Example 370]
3. CC(C)NC(=O)c1csc2c(C(F)(F)F)cc(N3CCC(NC4CCC(C(F)(F)F)CC4)C3)nc12 (centres unmarked)
4. CNC(=O)c1csc2c(C(F)(F)F)cc(O[C@H]3CN(C(=O)OCC4CC4)C[C@H]3F)nc12 (racemic)
5. CNC(=O)c1csc2c(C(F)(F)F)cc(N3CCN(CC(C)OCC4CC4)CC3)nc12 (racemic)

### Response
100 to 1000 nM
< 100 nM
> 1000 nM
< 100 nM
100 to 1000 nM

The following molecules each have a reported value; give each one's IC50.
1. CNC(=O)c1csc2c(C(F)(F)F)c(Cl)c(N3CCN(CC(=O)NC(C)C)CC3)nc12
2. CNC(=O)c1csc2c(C(F)(F)F)nc(N3CCC(OC(=O)N[C@@H](C)C4CC4)CC3)nc12
3. CNC(=O)c1csc2c(C(F)(F)F)cc(OC3CCN(C(=O)OC4CN(C)CC4F)CC3)nc12 (centres unmarked)
4. CNC(=O)c1csc2c(C(F)(F)F)c(C)c(N3CCN(CC(=O)NC(C)C)CC3)nc12
5. CNC(=O)c1csc2c(C(F)(F)F)cc(OC3CC4(CCN4C(=O)OCCOC(F)(F)F)C3)nc12 (centres unmarked)
6. CNC(=O)c1csc2c(C(F)(F)F)cc(OC3(C)CN(C(=O)OC(C)(C)C)C3)nc12
7. CNC(=O)c1csc2c(C(F)(F)F)cc(N3CC[C@H](OC(=O)N[C@@H](C)COC(F)(F)F)[C@@H](F)C3)nc12 (racemic)
8. CNC(=O)c1csc2c(C(F)(F)F)cc(O[C@@H]3CCN(C(=O)OCCOC(F)(F)F)[C@H](C)C3)nc12 (racemic) [Example 371]

### Response
1: 100 to 1000 nM; 2: < 100 nM; 3: 100 to 1000 nM; 4: 100 to 1000 nM; 5: 100 to 1000 nM; 6: 100 to 1000 nM; 7: < 100 nM; 8: < 100 nM

Provenance of the data: patent US11098056B2
